Can you tell me relative viability for the items I'm about to list?
tested on: LC-2-ad; experiment: relative viability (nuclei count vs DMSO), 5 days (fraction); higher = more cells survive; details: first compound 15.81 µM
Numbers only.

Consider the worked cases shown below.
O=C(O)CCCCC(CCSCc1ccccc1)SCc1ccccc1 (centres undefined) [CPI-613] + C[C@@H](Oc1cc(-c2cnn(C3CCNCC3)c2)cnc1N)c1c(Cl)ccc(F)c1Cl [Crizotinib] (partner 1 µM) : 0.432
O=C(O)CCCCC(CCSCc1ccccc1)SCc1ccccc1 (centres undefined) [CPI-613] + COc1cc2c(Oc3ccc(NC(=O)C4(C(=O)Nc5ccc(F)cc5)CC4)cc3F)ccnc2cc1OCCCN1CCOCC1 [Foretinib] (partner 0.25 µM) : 0.796
O=C(O)CCCCC(CCSCc1ccccc1)SCc1ccccc1 (centres undefined) [CPI-613] + C[C@]1(O)C[C@@H](c2nc(-c3ccc4ccc(-c5ccccc5)nc4c3)c3c(N)nccn32)C1 [Linsitinib] (partner 1 µM) : 0.847

From here, focus on the item given below.
[in] Could you share which relative viability value was measured for O=C(O)CCCCC(CCSCc1ccccc1)SCc1ccccc1 (centres undefined) [CPI-613] + CCNC(=O)c1noc(-c2cc(C(C)C)c(O)cc2O)c1-c1ccc(CN2CCOCC2)cc1 [Luminespib] (partner 0.01 µM) ?
[out] 0.958

Taken from the supplement of paper PMC10307832.
